B1: CPEB3 Ribozyme (parent)
chain: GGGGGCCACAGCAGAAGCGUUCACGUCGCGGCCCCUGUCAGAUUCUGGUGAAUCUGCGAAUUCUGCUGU

variants of: B1; assay: self-cleavage, relative activity (ratio to wild type); higher = more cleavage; co-transcriptional
Heads up, the class ranges for self-cleavage are bottom range = under 0.4, center range = from 0.4 up to 0.8, top range = 0.8 and over

Illustrative cases are given below, each with its answer.
1) G5A U38C: center range
2) A23G C66G: center range
3) G1C G65U: bottom range
4) G58A C66U: top range
5) G14C C45G: center range
6) A16U C34U: top range

Could you tell me which band U53A C57G belongs to?
bottom range

Could you tell me which band C24A U55G belongs to?
bottom range

Could you tell me which band G5A U67G belongs to?
top range

Could you tell me which band C34G C54A belongs to?
bottom range

Could you tell me which band A40U U49A belongs to?
top range

Could you tell me which band G30A U49C belongs to?
top range

Could you tell me which band A8C C33A belongs to?
top range

Could you tell me which band C7G A13U belongs to?
bottom range

Could you tell me which band U61G U64A belongs to?
center range

Could you tell me which band G58U G68C belongs to?
top range

Could you tell me which band C45A U62A belongs to?
top range

Could you tell me which band C34A U44C belongs to?
center range

Could you tell me which band A51U U69C belongs to?
top range

Could you tell me which band G2U A23U belongs to?
bottom range

Could you tell me which band G2A C32U belongs to?
bottom range

Could you tell me which band C12G U55G belongs to?
bottom range

Could you tell me which band A13C A16G belongs to?
center range

Could you tell me which band G1C C39G belongs to?
bottom range

Could you tell me which band A8G U36A belongs to?
bottom range
